Where do the numbers come from? From patent US10905735B2.

Bridge positions count the residues as written; N and C are the ends. Peptide text beside a SMILES is read from it.
OBSERVATION_TYPE: solubility

Determine its reported solubility: NC(=O)CC[C@@H]1NC(=O)[C@@H](N)CSSC[C@@H](C(=O)O)NC(=O)[C@H](Cc2ccc(O)cc2)NC(=O)[C@H](Cc2c[nH]c3ccccc23)NC(=O)[C@H](Cc2c[nH]cn2)NC(=O)[C@H](Cc2c[nH]c3ccccc23)NC(=O)[C@H](Cc2c[nH]c3ccccc23)NC(=O)[C@H](Cc2c[nH]cn2)NC1=O [MRK, CQHWWHWYC] (H-CQHWWHWYC-OH; disulfide 1-9)
< 100 µg/mL
